# Lookup of reported inhibition of SARS-CoV-2 cytopathic effect keyed by entry
tested on: Vero E6 infected with SARS-CoV-2; experiment: inhibition of SARS-CoV-2 cytopathic effect; higher = more antiviral protection, active = above 15; conditions: 8.33 nM; 48 h
ENDPOINT LABEL: inhibition of SARS-CoV-2 cytopathic effect (%)

# COMPOUND, TARGET UNDER TEST, VALUE
data = [
    ("CC(C)[C@H](CO)Nc1nc(Nc2ccc(C(=O)O)c(Cl)c2)c2ncn(C(C)C)c2n1 [purvalanol-B]", "Vero E6 infected with SARS-CoV-2", 5.29),
    ("[O-][n+]1ccccc1[S-].[O-][n+]1ccccc1[S-].[Zn+2] [pyrithione-zinc]", "Vero E6 infected with SARS-CoV-2", 0.32),
    ("CC(C)(C)c1ccc(C(=O)CCCN2CCC(OC(c3ccccc3)c3ccccc3)CC2)cc1 [ebastine]", "Vero E6 infected with SARS-CoV-2", 1.48),
    ("O=C(c1ccc(Cl)cc1)N(Cc1ccccc1)C1CCCCC1", "Vero E6 infected with SARS-CoV-2", -1.87),
    ("COc1ccccc1N1CCN(CCCCNC(=O)c2ccc3ccccc3c2)CC1", "Vero E6 infected with SARS-CoV-2", 0.24),
    ("N[C@@H](Cc1ccc(O)cc1)C(=O)NCC(=O)NCC(=O)O", "Vero E6 infected with SARS-CoV-2", 0.88),
    ("COc1ccc(-c2cc(=S)ss2)cc1 [anethole-trithione]", "Vero E6 infected with SARS-CoV-2", -0.29),
    ("COc1cc2c(cc1-c1c(C)noc1C)ncc1[nH]c(=O)n([C@H](C)c3ccccn3)c12", "Vero E6 infected with SARS-CoV-2", -7.32),
    ("CO[C@@H]1[C@@H](O[C@@H]2O[C@H](C)[C@@H](O[C@H]3C[C@@](C)(O)[C@@H](OC(=O)CC(C)C)[C@H](C)O3)[C@H](N(C)C)[C@H]2O)[C@@H](CC=O)C[C@@H](C)[C@@H](O)/C=C/C=C/C[C@@H](C)OC(=O)C[C@H]1OC(C)=O [josamycin]", "Vero E6 infected with SARS-CoV-2", 0.07),
    ("C=CC(=O)Nc1cccc(Oc2nc(Nc3ccc(N4CCN(C)CC4)cc3)nc3ccsc23)c1 [olmutinib]", "Vero E6 infected with SARS-CoV-2", 3.26),
    ("O=C(O)[C@H](O)[C@@H](O)[C@H](O[C@@H]1O[C@H](CO)[C@H](O)[C@H](O)[C@H]1O)[C@H](O)CO [maltobionic-acid]", "Vero E6 infected with SARS-CoV-2", -2.72),
    ("C[C@@H]1CCCN1CCc1cc2cc(-c3ccc(C#N)cc3)ccc2o1", "Vero E6 infected with SARS-CoV-2", -2.18),
    ("CC(C)C[C@H](NC(=O)CNC(=O)[C@H](Cc1ccc(O)cc1)NC(=O)[C@H](CO)NC(=O)[C@H](Cc1c[nH]c2ccccc12)NC(=O)[C@H](Cc1cnc[nH]1)NC(=O)[C@@H]1CCC(=O)N1)C(=O)N[C@@H](CCCNC(=N)N)C(=O)N1CCC[C@H]1C(=O)NCC(N)=O [gonadorelin]", "Vero E6 infected with SARS-CoV-2", -2.66),
    ("C[C@@H](O)[C@H]1C(=O)N2C(C(=O)[O-])=C(SC3Cn4cnc[n+]4C3)[C@H](C)[C@H]12 (stereo partly drawn) [biapenem]", "Vero E6 infected with SARS-CoV-2", -0.04),
    ("Nc1nc(CC(=O)Nc2ccc(CCNC[C@H](O)c3ccccc3)cc2)cs1 [mirabegron]", "Vero E6 infected with SARS-CoV-2", -0.61),
    ("CN(C)CCCN1c2ccccc2CCc2ccccc21 [imipramine]", "Vero E6 infected with SARS-CoV-2", 1.76),
    ("CCn1c(N)c(C(=O)NC)c(=O)c2ccc(C#C[C@@](C)(O)COC)nc21", "Vero E6 infected with SARS-CoV-2", -0.62),
    ("COc1cc(OC)c(OC)cc1C=O [asaraldehyde]", "Vero E6 infected with SARS-CoV-2", -1.92),
    ("CN1C(=O)CC(C)(c2ccccc2)C1=O (stereo not drawn) [methsuximide]", "Vero E6 infected with SARS-CoV-2", 0),
    ("O=C(CCCCCN1C(=O)c2cccc3cccc(c23)C1=O)NO [scriptaid]", "Vero E6 infected with SARS-CoV-2", 3.4),
    ("FC(F)(F)C(F)(F)C(F)(F)C(F)(F)C(F)(F)C(F)(F)C(F)(F)C(F)(F)Br [perflubron]", "Vero E6 infected with SARS-CoV-2", 1.61),
    ("CNC[C@H](O)c1cccc(O)c1 [phenylephrine]", "Vero E6 infected with SARS-CoV-2", 1.75),
    ("CC1(C)S[C@@H]2[C@H](NC(=O)C(C(=O)O)c3ccccc3)C(=O)N2[C@H]1C(=O)O (stereo partly drawn) [carbenicillin]", "Vero E6 infected with SARS-CoV-2", 1.83),
    ("NC(=O)c1cnc(N[C@@H]2CCCC[C@@H]2N)nc1Nc1cccc(-n2nccn2)c1", "Vero E6 infected with SARS-CoV-2", -0.3),
    ("O=C(O)CCCN1CCC(O[C@@H](c2ccc(Cl)cc2)c2ccccn2)CC1 [bepotastine]", "Vero E6 infected with SARS-CoV-2", 2.31),
    ("CCCC[C@H]1OC(=O)c2ccccc21 [butylphthalide]", "Vero E6 infected with SARS-CoV-2", -2.6),
    ("Cc1nc(Nc2ncc(C(=O)Nc3c(C)cccc3Cl)s2)cc(N2CCN(CCO)CC2)n1 [dasatinib]", "Vero E6 infected with SARS-CoV-2", -1.86),
    ("Cc1cc(C)nc(NS(=O)(=O)c2ccc(N)cc2)n1 [sulfamethazine]", "Vero E6 infected with SARS-CoV-2", 0.49),
    ("CCOC(=O)Nc1ccc2c(c1)N(C(=O)CCN(CC)CC)c1ccccc1S2 [ethacizin]", "Vero E6 infected with SARS-CoV-2", -5.11),
    ("O=C(C[C@H]1CC(c2ccc(F)cc2F)=NO1)N1CCOCC1 (racemic)", "Vero E6 infected with SARS-CoV-2", 0.9),
    ("Cc1cc(-c2cc(O)ccc2Cl)cc2nnc(Nc3ccc(OCCN4CCCC4)cc3)nc12", "Vero E6 infected with SARS-CoV-2", 1.04),
    ("NCCNc1ccc(NCCN)c2c1C(=O)c1ccncc1C2=O [pixantrone]", "Vero E6 infected with SARS-CoV-2", 0.16),
    ("Cc1cnc(C(=O)N[C@H]2CCCCC/C=C\\[C@@H]3C[C@@]3(C(=O)NS(=O)(=O)C3CC3)NC(=O)[C@@H]3C[C@@H](Oc4nc5ccccc5c5ccccc45)CN3C2=O)cn1 [paritaprevir]", "Vero E6 infected with SARS-CoV-2", -2.06),
]

----------
# Lookup of reported inhibition of SARS-CoV-2 cytopathic effect keyed by entry
system: Vero E6 infected with SARS-CoV-2; assay: inhibition of SARS-CoV-2 cytopathic effect; higher = more antiviral protection, active = above 15; details: 833.33 nM; 48 h
ENDPOINT LABEL: inhibition of SARS-CoV-2 cytopathic effect

# COMPOUND, TARGET UNDER TEST, VALUE
rows = [
    ("CCCOC(=O)c1ccc(O)cc1 [propyl 4-hydroxybenzoate]", "Vero E6 infected with SARS-CoV-2", "2.26% (inactive)"),
    ("CCCCC1=NC2(CCCC2)C(=O)N1Cc1ccc(-c2ccccc2-c2nnn[nH]2)cc1 [irbesartan]", "Vero E6 infected with SARS-CoV-2", "1.9% (inactive)"),
    ("CC(C)(C=O)Cc1cc(C(C)(C)C)c(O)c(C(C)(C)C)c1", "Vero E6 infected with SARS-CoV-2", "2.01% (inactive)"),
    ("O=C1CN(/N=C/c2ccc([N+](=O)[O-])o2)C(=O)N1 [nitrofurantoin]", "Vero E6 infected with SARS-CoV-2", "0.55% (inactive)"),
    ("O=C(/C=C/c1c(C(=O)O)[nH]c2cc(Cl)cc(Cl)c12)Nc1ccccc1 [gavestinel]", "Vero E6 infected with SARS-CoV-2", "-2.17% (inactive)"),
    ("O=C(O)C1=C[C@@H](O)[C@@H](O)[C@H](O)C1 [shikimic-acid]", "Vero E6 infected with SARS-CoV-2", "2.68% (inactive)"),
    ("O=C(OCCN1CCOCC1)c1cccnc1Nc1cccc(C(F)(F)F)c1 [morniflumate]", "Vero E6 infected with SARS-CoV-2", "-4.12% (inactive)"),
    ("COC(=O)N[C@H](C(=O)N1CCC[C@H]1c1nc(-c2ccc3c(c2)O[C@@H](c2ccccc2)n2c-3cc3cc(-c4c[nH]c([C@@H]5CCCN5C(=O)[C@@H](NC(=O)OC)C(C)C)n4)ccc32)c[nH]1)C(C)C [elbasvir]", "Vero E6 infected with SARS-CoV-2", "-1.19% (inactive)"),
]
